Biological target: SYK (human)
Experiment: radiometric filter-binding kinase assay, Kinase HotSpot
Settings: compound 0.5 µM; ATP 10 µM
assay_readout: residual activity (%)
Expressed in %, but write only the number.

• CO[C@H]1CC2CC[C@@H](C)[C@@](O)(O2)C(=O)C(=O)N2CCCC[C@H]2C(=O)OC([C@H](C)C[C@@H]2CC[C@@H](O)[C@H](OC)C2)CC(=O)[C@H](C)/C=C(\C)[C@@H](O)[C@@H](OC)C(=O)[C@H](C)C[C@H](C)/C=C/C=C/C=C/1C (stereo not given in full) = 97.1

Q: Give SYK (human) residual activity for N#CC(C#N)=C(N)/C(C#N)=C/c1ccc(O)cc1
Result: 101

Q: Give SYK (human) residual activity for O=C1NC(=O)/C(=C/c2ccc3c(c2)OC(F)(F)O3)S1
Result: 95.3

Q: Give SYK (human) residual activity for c1ccc(-c2n[nH]c3c2oc2ccccc23)cc1
Result: 97.7

Q: Give SYK (human) residual activity for O=c1cc(N2CCOCC2)oc2c1ccc1ccccc12
Result: 93

* * *

Molecular target: TAOK3 (human)
Experiment: radiometric filter-binding kinase assay, Kinase HotSpot
Conditions: compound 0.5 µM; ATP 10 µM
// residual activity lookup, one value per entry
Expressed in %, but write only the number.

* O=C1NC(=O)C(c2cn(CCCn3ccnc3)c3ccccc23)=C1Nc1ccccc1 | 76.5
* CCOC(=O)c1c(C)[nH]c(/C=C2\C(=O)Nc3ccccc32)c1C | 87.6

Would you kindly look at the next entry?
Q: Sample N#CC(C#N)=C(N)/C(C#N)=C/c1ccc(O)cc1 — what was its residual activity?
Result: 102

* * *

// residual activity lookup, one value per entry
Biological target: UniProt:P22455
Sequence (P22455 whole entry, looked up): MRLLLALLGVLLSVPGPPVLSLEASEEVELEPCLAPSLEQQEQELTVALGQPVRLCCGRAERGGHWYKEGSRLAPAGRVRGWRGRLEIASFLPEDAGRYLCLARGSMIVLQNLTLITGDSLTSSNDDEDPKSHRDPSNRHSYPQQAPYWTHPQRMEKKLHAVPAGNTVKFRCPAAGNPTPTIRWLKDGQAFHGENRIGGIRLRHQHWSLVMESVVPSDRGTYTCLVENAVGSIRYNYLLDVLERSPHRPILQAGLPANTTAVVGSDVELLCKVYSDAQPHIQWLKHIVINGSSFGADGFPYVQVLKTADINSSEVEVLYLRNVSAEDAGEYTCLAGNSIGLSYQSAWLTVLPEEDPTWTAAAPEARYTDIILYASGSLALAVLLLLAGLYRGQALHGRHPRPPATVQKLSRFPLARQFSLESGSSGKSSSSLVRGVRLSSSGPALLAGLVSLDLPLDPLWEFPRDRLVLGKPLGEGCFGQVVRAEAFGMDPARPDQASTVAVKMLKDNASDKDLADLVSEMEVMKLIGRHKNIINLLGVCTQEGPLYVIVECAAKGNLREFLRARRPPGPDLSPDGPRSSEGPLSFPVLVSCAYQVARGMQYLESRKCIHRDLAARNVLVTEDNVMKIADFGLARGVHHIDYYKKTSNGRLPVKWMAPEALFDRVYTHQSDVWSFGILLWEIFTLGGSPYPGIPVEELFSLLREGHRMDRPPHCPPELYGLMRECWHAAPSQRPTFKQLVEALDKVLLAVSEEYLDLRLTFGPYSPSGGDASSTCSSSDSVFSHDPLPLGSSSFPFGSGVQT
Assay: radiometric filter-binding kinase assay, Kinase HotSpot
Conditions: compound 0.5 µM; ATP 10 µM

• CCCC(=O)Oc1ccc2[nH]c(C(=O)c3cc4ccccc4[nH]3)cc2c1 = 90.9%
• N#CC(C#N)=C(N)/C(C#N)=C/c1ccc(O)cc1 = 91.1%

Q: Give UniProt:P22455 residual activity for COc1ccc2c(c[n+](C)c3c4cc5c(cc4ccc23)OCO5)c1OC
Result: 90.1%

* * *

// residual activity lookup, one value per entry
Target: UniProt:P49761
Sequence (P49761 whole entry, looked up): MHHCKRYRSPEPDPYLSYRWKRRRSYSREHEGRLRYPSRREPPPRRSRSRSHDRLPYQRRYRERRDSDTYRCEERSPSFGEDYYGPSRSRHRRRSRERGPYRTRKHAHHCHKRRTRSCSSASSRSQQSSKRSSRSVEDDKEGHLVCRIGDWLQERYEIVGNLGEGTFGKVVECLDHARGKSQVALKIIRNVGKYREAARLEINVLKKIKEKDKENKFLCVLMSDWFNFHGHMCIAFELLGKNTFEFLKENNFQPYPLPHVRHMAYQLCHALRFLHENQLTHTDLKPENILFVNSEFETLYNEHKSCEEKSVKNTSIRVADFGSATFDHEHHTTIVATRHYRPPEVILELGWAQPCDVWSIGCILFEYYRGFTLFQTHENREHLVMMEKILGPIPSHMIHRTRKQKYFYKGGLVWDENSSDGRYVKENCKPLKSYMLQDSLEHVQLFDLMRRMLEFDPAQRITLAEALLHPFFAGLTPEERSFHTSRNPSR
Assay: radiometric filter-binding kinase assay, Kinase HotSpot
Settings: compound 0.5 µM; ATP 10 µM
Expressed in %, but write only the number.

- CCOC(=O)c1c(C)[nH]c(/C=C2\C(=O)Nc3ccccc32)c1C: 100

Q: Sample CC[n+]1c(/C=C/N(C)c2ccccc2)n(-c2ccccc2)c2ccc(-c3nc4ccccc4s3)cc21 — what was its residual activity?
Result: 114

Q: Sample O=C1NC(=O)/C(=C/c2ccc3c(c2)OC(F)(F)O3)S1 — what was its residual activity?
Result: 96.8

Q: Sample c1ccc(-c2n[nH]c3c2oc2ccccc23)cc1 — what was its residual activity?
Result: 91

* * *

Molecular target: SRPK3 (human)
Test: radiometric filter-binding kinase assay, Kinase HotSpot
Conditions: compound 0.5 µM; ATP 10 µM
// residual activity lookup, one value per entry
Expressed in %, but write only the number.

Recorded residual activity, per entry:
* Nc1ncnc2[nH]nc(Nc3ccc(F)cc3)c12 | 91.5
* O=C1NC(=O)c2c1c1c3ccccc3n3c1c1c2c2ccccc2n1C1CCC3O1 | 63.6
* O=C(Nc1cccc(Nc2nccc(Nc3cccc(C(F)(F)F)c3)n2)c1)C1CC1 | 101

Would you kindly look at the next entry?
Q: Sample Oc1cccc(-c2nc(N3CCOCC3)c3oc4ncccc4c3n2)c1 — what was its residual activity?
Result: 95
